Cited source: PubChem BioAssay (NCI)

system: HS 578T breast; test: NCI-60 one-dose screen, 48 h (100 = growth as untreated, 0 = no growth, -100 = all killed); conditions: 10 µM unless noted
Compounds without any hit were thinned out: in the full panel of roughly 83,000, 20% have a hit. Active and inactive are the calls of the source. How the source made its calls: active means growth percent below 10; inactive means the rest.
Give measured growth for each item. Keep answers brief.

Ask: Entry CCN1CCN(CC(=O)Nc2nc3ccc(NCc4ccc(Br)cc4)cc3s2)CC1 : reported growth = ?
Result: 81.3% (inactive)

Ask: Entry O=C(c1ccc(F)c(Cl)c1)N1c2ccccc2Sc2ccccc21 : reported growth = ?
Result: 79.3% (inactive)

Ask: Entry CCCCCCCC/C=C\CCCCCCCCOc1ccc(CC(=O)NCC[N+](C)(C)C)cc1 : reported growth = ?
Result: 76.7% (inactive)

Ask: Entry Cc1c2ccccc2nc2c1ccc1cccnc12 : reported growth = ?
Result: 117% (inactive)

Ask: Entry CC(C)CN1CC(C(=O)Nc2ccc3c(c2)-c2ccccc2C3)CC1=O (stereo not given) : reported growth = ?
Result: 28.8% [50 µM] (inactive)

Ask: Entry O=C1NC(=Nc2ccc(O)cc2)S/C1=C\c1cccs1 : reported growth = ?
Result: 32.6% (inactive)

Ask: Entry O=C(N=Nc1c(O)[nH]c2ccccc12)Nc1ccc(Cl)cc1 : reported growth = ?
Result: 95.1% (inactive)

Ask: Entry C/C(=N\O)C(=O)NCCCCCC(=O)Nc1ccccc1 : reported growth = ?
Result: 114% (inactive)

Ask: Entry C=CC(C)(O)CC/C=C(\CO)C(=O)OC1C(C)OC(O[C@](C)(C=C)CC/C=C(\CO)C(=O)O[C@H]2C[C@@]3(C(=O)OC4OC(CO)C(O)C(O)C4OC4OC(C)C(OC5OC(CO)C(O)C5O)C(OC5OC(CO)C(O)C(O)C5O)C4O)C(CC2(C)C)C2=CCC4[C@@]5(C)CC[C@H](OC6OC(COC7OC(C)C(O)C(O)C7OC7OCC(O)C(O)C7O)C(O)C(O)C6NC(C)=O)C(C)(C)C5CC[C@@]4(C)[C@]2(C)C[C@H]3O)C(O)C1O (stereo not given in full) : reported growth = ?
Result: -31.4% (active)

Ask: Entry COc1ccc(-c2nnc(SCC(=O)Nc3ccc(/C(C)=N\O)cc3)n2-c2ccccc2)cc1OC : reported growth = ?
Result: 42.8% (inactive)

Ask: Entry COc1cc(-c2nc(SCCC(C)C)nc(N3CCOCC3)c2C#N)cc(OC)c1OC : reported growth = ?
Result: 76.7% (inactive)

Ask: Entry COc1ccc2c(c1)c(-c1nonc1-c1c[nH]c3ccc(Br)cc13)cn2C : reported growth = ?
Result: 59.1% (inactive)

Ask: Entry O=C1N[C@@H]2[C@@H](O)[C@@H](O)[C@H](O)C[C@H]2c2cc3c(c(O)c21)OCCO3 : reported growth = ?
Result: -9.44% (active)

Ask: Entry Nc1c(C(=O)Nc2ccncc2)sc2nc3c(cc12)CCCCC3 : reported growth = ?
Result: 85.1% (inactive)

Ask: Entry CN(C)Cc1ccc(C(=O)Nc2ccc3ncnc(Nc4ccc(Oc5cccc(F)c5)c(Cl)c4)c3c2)cc1 : reported growth = ?
Result: -11.7% (active)

Ask: Entry COc1ccc2c(c1)c(-c1nc(-c3cn(C)c4ncccc34)cs1)cn2CCO : reported growth = ?
Result: 80.9% (inactive)

Ask: Entry COc1cc2cc(NCc3ccc(OC(F)F)cc3)nc(C)c2cc1OC : reported growth = ?
Result: 77.6% (inactive)

Ask: Entry Fc1ccc2c(c1)c(-c1nc(-c3c[nH]c4ncccc34)cs1)cn2CCCN1CCOCC1 : reported growth = ?
Result: 38.3% (inactive)

Ask: Entry CCOC(=O)c1c(-c2ccccc2)n2c(=O)cc(C)c3c(O)c(O)cc1c32 : reported growth = ?
Result: 87.7% (inactive)

Ask: Entry O=C(c1ccc(Cl)cc1Cl)N1c2ccccc2Sc2ccccc21 : reported growth = ?
Result: 95.9% (inactive)

Ask: Entry CCCCCSB(SCCCCC)c1ccccc1 : reported growth = ?
Result: 109% (inactive)

Ask: Entry C#CC#CC#CC#CC#CC#CC#CC#CC[C@H]1OC[C@@H](COC(=O)O[C@@H](C(=O)O[C@H]2C[C@@]3(O)[C@@H](OC(=O)c4ccccc4)[C@@H]4[C@]5(OC(C)=O)CO[C@@H]5C[C@H](O)[C@@]4(C)C(=O)[C@H](OC(C)=O)C(=C2C)C3(C)C)[C@@H](NC(=O)c2ccccc2)c2ccccc2)O1 : reported growth = ?
Result: 44.3% (inactive)

Ask: Entry COc1ccc(C(O)c2cc3c(N)c(C(=O)Nc4cccc(Cl)c4)sc3nc2C)cc1 (stereo not given) : reported growth = ?
Result: -8.06% (active)

Ask: Entry O=C1C(Cl)=C(NCCN2CCOCC2)C(=O)c2ncccc21 : reported growth = ?
Result: 1.02% (active)

Ask: Entry COc1ccc(/C=C/C(=O)c2cc3c(N)c(C(=O)Nc4ccc(OC)cc4)sc3nc2C)cc1 : reported growth = ?
Result: 8.09% (active)

Ask: Entry Cn1cc(-c2nn3cc(-c4ccccc4)nc3s2)c2ccccc21 : reported growth = ?
Result: 62.3% (inactive)

Ask: Entry CCn1c2ccc(O)cc2c2c(C)c3c[n+](C(C)C)ccc3c(C)c21 : reported growth = ?
Result: 34.8% (inactive)

Ask: Entry O=C(N/N=C/c1ccc([N+](=O)[O-])cc1)c1ccc2nc(-c3ccc(Cl)cc3)[nH]c2c1 : reported growth = ?
Result: 36.8% (inactive)

Ask: Entry COc1cc(Nc2c3ccc(Cl)cc3nc3ccc(OC)cc23)c2ncccc2c1 : reported growth = ?
Result: 65.1% (inactive)

Ask: Entry COc1cccc(/C=C/C(=O)c2cc3c(N)c(C(=O)Nc4cccc(Cl)c4C)sc3nc2C)c1 : reported growth = ?
Result: 4.67% (active)

Ask: Entry Cc1cc(N2CCCCC2)nc(N2CCN(CC(=O)Nc3ccc4c(ccn4Cc4ccccc4)c3)CC2)n1 : reported growth = ?
Result: 66.7% (inactive)

Ask: Entry Cc1ccc(S(=O)(=O)n2cc(C3C(Cl)C(=O)N3c3ccc(N4CCOCC4=O)cc3)c3ccccc32)cc1 (stereo not given) : reported growth = ?
Result: 41.8% (inactive)

Ask: Entry C[C@@H]1O[C@@H](O[C@@H]2C[C@H](c3ccc4c(c3O)C(=O)C3=C(C4=O)[C@@]4(O)C(=O)C[C@](C)(O)C[C@@]4(O)C=C3)O[C@H](C)[C@H]2O)C[C@H](O)[C@@H]1O : reported growth = ?
Result: 94.4% (inactive)

Ask: Entry CC(C(=O)O)n1c(O)c(C=Nc2cccnc2)sc1=S (stereo not given) : reported growth = ?
Result: 74.9% (inactive)

Ask: Entry O=C(CN1CCN(c2cc3c(cc2F)c(=O)c(C(=O)O)cn3C2CC2)CC1)N/N=C/c1ccncc1 : reported growth = ?
Result: 101% (inactive)

---

system: MALME-3M melanoma; experiment: NCI-60 one-dose screen, 48 h; details: 10 µM unless noted
The panel holds about 83,000 compounds, 20% with a hit somewhere; the sample as a whole holds those more often. The source made the active and inactive calls. Rule for the calls: active = growth percent below 10; inactive = the rest.
Select the matching outcome among Y for active, N for inactive

Ask: So what was the verdict on COc1cc(C2Cc3ncccc3-c3[nH]c(=O)c4cccnc4c32)cc(OC)c1OC (stereo not given) in this test?
Result: N

Ask: So what was the verdict on COC(c1ccc2ccccc2c1)C(C)C(F)F (stereo not given) in this test?
Result: N

Ask: So what was the verdict on Cc1[nH]c(/C=C/C(=O)c2ccc(C(F)(F)F)c(F)c2)c(C)c1C(=O)NCC(C)C in this test?
Result: N

Ask: So what was the verdict on COc1ccc2cc(-c3cnc4nonc4n3)ccc2c1 in this test?
Result: N

Ask: So what was the verdict on O=C1CCC(C(=O)NN(c2ccccc2)c2ccccc2)N1 (stereo not given) in this test?
Result: N

Ask: So what was the verdict on CC1=C(C(=O)n2c3ccccc3c3ccccc32)C(c2cccc([N+](=O)[O-])c2)C(C(=O)n2c3ccccc3c3ccccc32)=C(C)N1 in this test?
Result: N

Ask: So what was the verdict on O=C1c2cccnc2C(=O)c2c1c(C(=O)OCCCN1CCCCC1)c1ccccn21 in this test?
Result: Y

Ask: So what was the verdict on N#CC(C#N)N=Nc1ccc(Cl)cc1Cl in this test?
Result: N

Ask: So what was the verdict on Cc1ccc(S(=O)(=O)n2cc(C3C(Cl)C(=O)N3c3ccc(N4CCOCC4=O)cc3)c3ccccc32)cc1 (stereo not given) in this test?
Result: N

Ask: So what was the verdict on NC(CSC(c1ccccc1)(c1ccccc1)c1ccc2c(c1)OCO2)C(=O)O (stereo not given) in this test?
Result: N

---

Tested on: OVCAR-8 ovarian
Test: NCI-60 one-dose screen, 48 h
Conditions: 10 µM unless noted
Method: Growth inhibition of the OVCAR-8 human tumor cell line is measured as a screen for anti-cancer activity. Cells are grown in 96 well plates and exposed to the test compound for 48 hours. Compounds are tested at a single concentration, which is 10^-5 M for most compounds. The reported endpoint is percent growth (GI% or GIPRCNT), where numbers from 0 - 100% represent growth inhibition, and numbers from -100% - 0 represent cell death. For example, a value of 40 represents 60% growth inhibition. […]
Compounds without any hit were thinned out: in the full panel of roughly 83,000, 20% have a hit. Active and inactive are the calls of the source. How the source made its calls: active means growth percent below 10; inactive means the rest.
Select the matching outcome among active, inactive

Ask: So what was the verdict on CCN1CCN(CC(=O)Nc2nc3ccc(NCc4ccc(Br)cc4)cc3s2)CC1 in this test?
Result: inactive

Ask: So what was the verdict on O=C1C(Cl)=C(NCCN2CCOCC2)C(=O)c2ncccc21 in this test?
Result: inactive

Ask: So what was the verdict on COc1ccc(C/C(C)=C(\c2ccc(O)cc2)c2ccc(OCCN3CCCC3)cc2)cc1 in this test?
Result: inactive

Ask: So what was the verdict on S=c1[nH]c2cc(Cl)ccc2o1 in this test?
Result: inactive

Ask: So what was the verdict on Cc1cscc(C)c1=S in this test?
Result: inactive

Ask: So what was the verdict on O=C(O)CCCn1c(SCc2c(Cl)cccc2Cl)nc2ccsc2c1=O in this test?
Result: inactive

Ask: So what was the verdict on N#Cc1c(-c2ccccc2)nc2c(c(-c3ccccc3)nn2-c2ccccc2)c1-c1ccc(N2CCOCC2)cc1 in this test?
Result: inactive

Ask: So what was the verdict on CCCCc1oc2ccccc2c1C(=O)c1ccc(O)cc1 in this test?
Result: inactive

Ask: So what was the verdict on COC1=CC(c2ccc[nH]2)=N/C1=C\c1[nH]c(C)c(CC(=O)OCc2ccccc2)c1C in this test?
Result: active

Ask: So what was the verdict on CCCCCCC(CCCC)COC(=O)c1ccc(Cl)cc1 (stereo unspecified) in this test?
Result: inactive

Ask: So what was the verdict on CCC(C)Nc1ccc(NC(C)CC)cc1 (stereo unspecified) in this test?
Result: inactive
